These measurements were taken from the Human Domainome abundance scans (Beltran et al. 2025).

B1: Storkhead-box protein 2, residues 64 to 141; numbered along this chain, Q9P2F5 (parent)
chain: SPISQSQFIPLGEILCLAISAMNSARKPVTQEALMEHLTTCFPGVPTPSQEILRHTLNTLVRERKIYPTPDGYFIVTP

variants of: B1; test: abundance fitness (aPCA) (normalised: wild type 0, dead -1); higher = more abundant; growth selection in yeast, the domain comes from the species named; conditions: Homo sapiens
Returns the class for an entry based on its abundance fitness. Class ranges: range A = under -0.1, range B = from -0.1 up to -0.007, range C = -0.007 and over

// known answers, use as guide
{"columns": ["MUTATION_LABEL", "LABEL_VALUE"],
 "data": [
  ["T47Y", "range A"],
  ["T30S", "range C"],
  ["I9T", "range C"],
  ["P10S", "range B"],
  ["P46G", "range A"],
  ["R64I", "range A"],
  ["S4H", "range C"],
  ["T40V", "range B"],
  ["L34T", "range A"],
  ["H37A", "range A"]
]}

Sort `D71H` into one of the categories.
range C

Sort `N23D` into one of the categories.
range B

Sort `H55E` into one of the categories.
range C

Sort `F8K` into one of the categories.
range A

Sort `L60S` into one of the categories.
range A

Sort `V45S` into one of the categories.
range A

Sort `I3P` into one of the categories.
range A

Sort `T59V` into one of the categories.
range C

Sort `C16I` into one of the categories.
range B

Sort `Y67K` into one of the categories.
range C

Sort `N23Y` into one of the categories.
range A
